This collection of values is drawn from patent US20060018902A1.

Biological target: T1, soluble EpoR (EposR) (human, UniProt P19235 25-250, limits assumed)
T1 construct: also called soluble recombinant human EpoR
T1 sequence (looked up): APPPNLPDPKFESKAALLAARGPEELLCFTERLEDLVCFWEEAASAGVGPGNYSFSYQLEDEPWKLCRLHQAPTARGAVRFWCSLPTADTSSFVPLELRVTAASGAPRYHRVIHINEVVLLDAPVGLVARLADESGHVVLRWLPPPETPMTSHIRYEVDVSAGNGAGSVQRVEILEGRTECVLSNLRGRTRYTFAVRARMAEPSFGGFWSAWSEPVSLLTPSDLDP
Assay: SPR (BIAcore), IgG2/K sub-variant of Ab12.6, EposR as test antigen
koff by entry:
Give your result in s⁻¹ as a bare value.

- binder: "Ab12.118 (antibody, IgG2, V domains shown) VH: QVQLQESGPGLVKPSETLSLTCTVSGASISSYYWSWIRQPPGKGLEWIGYIGYSGSTNYNPSLKSRVTISVDTSKNQFSLKLRSVTAADTAVYYCARERLGIGDYWGQGTLVTVSS VL: DIQLTQSPSSLSASVGDRVTITCRASQGIRNDLGWYQQKPGKAPKRLIYAASSLQSGVPSRFSGSGSGTEFTLTISSLQPEDFATYYCLQHNTYPPTFGQGTKVEIK"
  koff, s⁻¹: 0.0055
- binder: "Ab12.119 (antibody, IgG2, V domains shown) VH: QVQLQESGPGLVKPSETLSLTCTVSGASISSYYWSWIRQPPGKGLEWIGYIYGSGSTNYNPSLKSRVTISVDTSKNQFSLKLRSVTAADTAVYYCARERLGIGDYWGQGTLVTVSS VL: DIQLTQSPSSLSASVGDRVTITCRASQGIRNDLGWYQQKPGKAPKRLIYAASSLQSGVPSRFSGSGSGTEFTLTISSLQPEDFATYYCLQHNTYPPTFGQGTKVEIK"
  koff, s⁻¹: 0.0044

Let's switch to this binder now.
IN: // query koff value for entry Ab12.123 (antibody, IgG2, V domains shown) VH: QVQLQESGPGLVKPSETLSLTCTVSGASISSYYWSWIRQPPGKGLEWIGYIGYEGSTNYNPSLKSRVTISVDTSKNQFSLKLRSVTAADTAVYYCARERLGIGDYWGQGTLVTVSS VL: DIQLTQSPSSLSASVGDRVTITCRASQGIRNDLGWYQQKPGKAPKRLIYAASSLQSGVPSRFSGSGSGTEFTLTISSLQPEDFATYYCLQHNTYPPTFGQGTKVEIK
OUT: 0.0033
